Assay: Permeability across pig LLC-PK1 cells
Assay type: ADME, cell-based, Sus scrofa
Conditions: read-out: permeability
testReadout: Papp

Please look up its Papp: CCn1c(=O)n([C@H]2CCCN(c3cc(-c4ccc(F)cc4)nc(N)n3)C2)c2ncccc21
35 nm/s

====

Biological target: Fatty-acid amide hydrolase 1 (Homo sapiens)
Sequence (O00519 whole entry): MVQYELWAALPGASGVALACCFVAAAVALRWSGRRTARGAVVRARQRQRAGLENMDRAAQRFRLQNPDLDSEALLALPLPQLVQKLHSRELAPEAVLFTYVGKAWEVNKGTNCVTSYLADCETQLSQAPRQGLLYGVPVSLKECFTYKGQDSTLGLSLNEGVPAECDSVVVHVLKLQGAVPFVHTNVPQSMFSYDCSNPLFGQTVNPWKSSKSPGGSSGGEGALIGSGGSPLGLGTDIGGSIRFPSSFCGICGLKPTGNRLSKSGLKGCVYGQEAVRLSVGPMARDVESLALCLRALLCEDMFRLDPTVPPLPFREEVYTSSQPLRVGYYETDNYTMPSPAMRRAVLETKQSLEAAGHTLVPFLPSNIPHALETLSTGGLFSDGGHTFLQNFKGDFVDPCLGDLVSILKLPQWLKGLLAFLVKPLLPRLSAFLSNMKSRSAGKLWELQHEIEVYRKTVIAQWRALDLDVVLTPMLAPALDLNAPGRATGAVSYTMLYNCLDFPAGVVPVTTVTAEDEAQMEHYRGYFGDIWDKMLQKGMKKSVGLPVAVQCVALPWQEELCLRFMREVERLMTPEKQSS
testReadout: IC50
Form field: result (number plus unit)

O=c1n(CC(F)(F)F)c2cccnc2n1[C@H]1CCCN(c2nccc(-c3ccc(Cl)s3)n2)C1
0.002 µM
CCn1c(=O)n([C@H]2CCCN(c3ccnc(-c4ccccc4F)n3)C2)c2ccccc21
0.13 µM
CCn1c(C)c(C2CCCN(c3nccc(-c4cc5ccccc5s4)n3)C2)c2cccnc21 (stereo not given)
0.011 µM
CCn1c(=O)n([C@H]2CCCN(c3cc(-c4cc5ccccc5o4)nc(N)n3)C2)c2ncccc21
0.01 µM

Please look at the following molecule next.
Could you tell me which IC50 is on file for CCn1c(=O)n([C@H]2CCCN(c3ccnc(-c4cc5ccccc5o4)n3)C2)c2ccccc21 ?
0.03 µM

Reference for the values: ChEMBL document CHEMBL1759906
